Source listed as ChEMBL document CHEMBL1157496.

What Activity was measured for each of the following?
Target: Voltage-dependent T-type calcium channel subunit alpha-1I (Homo sapiens) (UniProt Q9P0X4)
Sequence (Q9P0X4 whole entry): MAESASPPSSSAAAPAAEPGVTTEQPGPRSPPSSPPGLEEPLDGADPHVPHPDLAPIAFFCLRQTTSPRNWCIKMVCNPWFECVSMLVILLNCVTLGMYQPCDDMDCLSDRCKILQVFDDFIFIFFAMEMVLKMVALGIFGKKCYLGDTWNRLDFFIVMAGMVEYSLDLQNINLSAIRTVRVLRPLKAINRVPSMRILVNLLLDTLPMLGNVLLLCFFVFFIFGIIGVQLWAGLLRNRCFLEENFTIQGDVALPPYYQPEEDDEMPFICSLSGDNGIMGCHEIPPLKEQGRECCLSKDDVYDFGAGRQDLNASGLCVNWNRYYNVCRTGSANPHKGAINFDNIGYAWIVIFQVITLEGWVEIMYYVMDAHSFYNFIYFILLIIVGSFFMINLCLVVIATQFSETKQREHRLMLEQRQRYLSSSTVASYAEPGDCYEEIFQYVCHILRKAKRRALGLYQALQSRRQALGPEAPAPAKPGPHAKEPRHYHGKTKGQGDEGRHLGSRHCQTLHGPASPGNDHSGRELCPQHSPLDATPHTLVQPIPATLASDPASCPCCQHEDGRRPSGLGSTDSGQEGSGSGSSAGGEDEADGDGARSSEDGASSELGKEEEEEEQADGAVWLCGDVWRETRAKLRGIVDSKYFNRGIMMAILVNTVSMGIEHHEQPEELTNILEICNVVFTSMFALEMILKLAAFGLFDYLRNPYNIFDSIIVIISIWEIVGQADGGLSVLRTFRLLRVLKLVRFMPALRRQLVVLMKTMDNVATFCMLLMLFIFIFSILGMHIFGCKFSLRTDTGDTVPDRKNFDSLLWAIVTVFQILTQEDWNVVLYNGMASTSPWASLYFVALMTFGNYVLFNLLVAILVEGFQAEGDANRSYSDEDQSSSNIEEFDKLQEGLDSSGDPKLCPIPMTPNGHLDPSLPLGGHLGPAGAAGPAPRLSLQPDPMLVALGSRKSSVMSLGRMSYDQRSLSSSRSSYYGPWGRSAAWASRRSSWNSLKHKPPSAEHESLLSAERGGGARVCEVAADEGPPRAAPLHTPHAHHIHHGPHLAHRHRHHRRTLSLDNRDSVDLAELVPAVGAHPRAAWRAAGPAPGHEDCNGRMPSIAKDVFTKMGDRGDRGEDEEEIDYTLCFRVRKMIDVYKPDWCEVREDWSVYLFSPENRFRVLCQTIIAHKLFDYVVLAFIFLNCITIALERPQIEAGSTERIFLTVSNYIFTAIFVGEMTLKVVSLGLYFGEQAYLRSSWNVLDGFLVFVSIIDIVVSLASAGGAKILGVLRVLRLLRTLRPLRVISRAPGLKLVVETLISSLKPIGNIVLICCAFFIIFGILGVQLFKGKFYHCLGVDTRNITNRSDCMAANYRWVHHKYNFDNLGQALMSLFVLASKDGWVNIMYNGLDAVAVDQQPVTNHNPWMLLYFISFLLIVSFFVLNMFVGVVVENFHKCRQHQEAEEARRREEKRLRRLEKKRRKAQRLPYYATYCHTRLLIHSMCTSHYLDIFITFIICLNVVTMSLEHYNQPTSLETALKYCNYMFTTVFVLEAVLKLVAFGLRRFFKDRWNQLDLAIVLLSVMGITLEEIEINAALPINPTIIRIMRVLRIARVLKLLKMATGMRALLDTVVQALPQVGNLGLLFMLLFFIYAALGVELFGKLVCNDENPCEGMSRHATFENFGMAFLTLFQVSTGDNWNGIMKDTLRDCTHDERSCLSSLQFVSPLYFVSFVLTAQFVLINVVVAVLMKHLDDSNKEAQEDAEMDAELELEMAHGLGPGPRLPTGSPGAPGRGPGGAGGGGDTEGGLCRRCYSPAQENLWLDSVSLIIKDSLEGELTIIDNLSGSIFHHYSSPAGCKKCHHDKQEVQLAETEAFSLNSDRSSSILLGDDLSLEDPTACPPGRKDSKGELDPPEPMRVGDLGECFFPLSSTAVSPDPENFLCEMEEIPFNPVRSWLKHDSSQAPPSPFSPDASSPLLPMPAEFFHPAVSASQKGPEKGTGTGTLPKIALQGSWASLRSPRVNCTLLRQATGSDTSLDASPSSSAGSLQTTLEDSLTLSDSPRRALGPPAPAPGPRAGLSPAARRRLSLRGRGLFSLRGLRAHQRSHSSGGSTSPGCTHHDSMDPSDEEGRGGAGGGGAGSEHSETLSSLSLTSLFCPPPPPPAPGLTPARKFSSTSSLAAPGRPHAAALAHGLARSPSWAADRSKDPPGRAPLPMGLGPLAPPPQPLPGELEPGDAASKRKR
Experiment: Antagonist activity at T type calcium channel Cav3.3 alpha1i at -20 mV by FLIPR assay
Format: functional
Give bare numbers, in nM.

Sample answers from the record:
[
  {
    "compound": "CC(C)(C)CCN1CCC(F)(CNC(=O)c2cc(Cl)cc(Cl)c2)CC1",
    "Activity / nM": 66
  },
  {
    "compound": "CC1(C)C[C@H](CN2CCC(F)(CNC(=O)c3cc(Cl)cc(Cl)c3)CC2)CCO1",
    "Activity / nM": 94
  },
  {
    "compound": "CC1(C)CC(CN2CCC(F)(CNC(=O)c3cc(Cl)cc(Cl)c3)CC2)CCO1 (racemic)",
    "Activity / nM": 145
  }
]

Below: the item to evaluate.
Challenge: Report measured Activity; entry is "CC1(C)C[C@@H](CN2CCC(F)(CNC(=O)c3cc(Cl)cc(Cl)c3)CC2)CCO1"
Response given: 84
